Source: paper PMC3218832

system: RELA (p65) subunit of heterodimer;p52 subunit (Homo sapiens;Homo sapiens); test: EMSA-Seq; settings: Footprinting/EMSA: 10 mM Tris pH 7.4, 75 mM NaCl, 1 mM EDTA, 1 mM DTT, 200 ug/ml BSA, 0.005% NP-40, EMSA-Seq: 12 mM HEPES pH 7.8, 75 mM KCl, 4 mM …
endpointName: binding signal (z-score)

[[record]]
recordsequence = "AGGAAATTCCG 11-mer in EMSA-Seq ligands"
target = "RELA (p65) subunit of heterodimer;p52 subunit (Homo sapiens;Homo sapiens)"
quantityunit = "z-score"
measvalue = 13

[[record]]
recordsequence = "AGGGGAAGTTA 11-mer in EMSA-Seq ligands"
target = "RELA (p65) subunit of heterodimer;p52 subunit (Homo sapiens;Homo sapiens)"
quantityunit = "z-score"
measvalue = 27.5

[[record]]
recordsequence = "AGGGGGATCTG 11-mer in EMSA-Seq ligands"
target = "RELA (p65) subunit of heterodimer;p52 subunit (Homo sapiens;Homo sapiens)"
quantityunit = "z-score"
measvalue = 18.4

[[record]]
recordsequence = "CTGGGGATTTA 11-mer in EMSA-Seq ligands"
target = "RELA (p65) subunit of heterodimer;p52 subunit (Homo sapiens;Homo sapiens)"
quantityunit = "z-score"
measvalue = 19.5

